System: NCI-H2009
measurementDescription: relative viability (nuclei count vs DMSO), 5 days (fraction); higher = more cells survive
protocolConditions: first compound 0.6325 µM
Consider the following compounds and their measured relative viability readings.
// print number alone

Cc1csc(=NC2CCCCC2)n1/N=C/c1ccc(O)c(O)c1O [MIM1] + CC1(C)CCC(c2ccc(Cl)cc2)=C(CN2CCN(c3ccc(C(=O)NS(=O)(=O)c4ccc(N[C@H](CCN5CCOCC5)CSc5ccccc5)c(S(=O)(=O)C(F)(F)F)c4)cc3)CC2)C1 [Navitoclax] (partner 0.5 µM)    1.19
CN1CCN(CCOc2cc(OC3CCOCC3)c3c(Nc4c(Cl)ccc5c4OCO5)ncnc3c2)CC1 [Saracatinib] + Nc1ncn([C@H]2C[C@H](O)[C@@H](CO)O2)c(=O)n1 [Decitabine] (partner 2 µM)    0.35
Cc1csc(=NC2CCCCC2)n1/N=C/c1ccc(O)c(O)c1O [MIM1] + O=C(CCCCCCC(=O)Nc1ccccc1)NO [Vorinostat] (partner 1 µM)    0.713

// below: relative viability requested for another compound
Exercise: Consider the compound CN1CCN(CCOc2cc(OC3CCOCC3)c3c(Nc4c(Cl)ccc5c4OCO5)ncnc3c2)CC1 [Saracatinib] + C[C@]1(O)C[C@@H](c2nc(-c3ccc4ccc(-c5ccccc5)nc4c3)c3c(N)nccn32)C1 [Linsitinib] (partner 1 µM) and give its measured relative viability.
Solution: 1.15

---

Measured relative viability, listed per entry for reference.
Tested on: NCI-H596
measurementDescription: relative viability (nuclei count vs DMSO), 5 days (fraction); higher = more cells survive
protocolConditions: first compound 2.53 µM

Check out these entries, answers already filled in.
Nc1cccc2c1CN(C1CCC(=O)NC1=O)C2=O (stereo unspecified) [Lenalidomide] + NC(=O)Nc1cc(-c2cccc(F)c2)sc1C(=O)N[C@H]1CCCNC1 [AZD7762] (partner 0.2 µM)    1.1
Nc1cccc2c1CN(C1CCC(=O)NC1=O)C2=O (stereo unspecified) [Lenalidomide] + CS(=O)(=O)CCNCc1ccc(-c2ccc3ncnc(Nc4ccc(OCc5cccc(F)c5)c(Cl)c4)c3c2)o1 [Lapatinib] (partner 2 µM)    1.1
Nc1cccc2c1CN(C1CCC(=O)NC1=O)C2=O (stereo unspecified) [Lenalidomide] + Cc1cc(Nc2cc(N3CCN(C)CC3)nc(Sc3ccc(NC(=O)C4CC4)cc3)n2)n[nH]1 [Tozasertib] (partner 0.1 µM)    0.904
Nc1cccc2c1CN(C1CCC(=O)NC1=O)C2=O (stereo unspecified) [Lenalidomide] + O=C(CCCCCCC(=O)Nc1ccccc1)NO [Vorinostat] (partner 1 µM)    0.689
Nc1cccc2c1CN(C1CCC(=O)NC1=O)C2=O (stereo unspecified) [Lenalidomide] + N=C(N)NC(=N)NCCc1ccccc1 [Phenformin] (partner 250 µM)    0.911

// moving on: another record for relative viability
Exercise: Query (compound): Nc1cccc2c1CN(C1CCC(=O)NC1=O)C2=O (stereo unspecified) [Lenalidomide] + COc1cc2c(Oc3ccc(NC(=O)C4(C(=O)Nc5ccc(F)cc5)CC4)cc3F)ccnc2cc1OCCCN1CCOCC1 [Foretinib] (partner 0.25 µM) ; field requested: relative viability
Solution: 0.908

---

Form field: relative viability (one value per entry).
System: CAL-12T
measurementDescription: relative viability (nuclei count vs DMSO), 5 days (fraction); higher = more cells survive
protocolConditions: first compound 2 µM

CN1CCN(CCOc2cc(OC3CCOCC3)c3c(Nc4c(Cl)ccc5c4OCO5)ncnc3c2)CC1 [Saracatinib] + CC(=O)Nc1cccc(-n2c(=O)n(C3CC3)c(=O)c3c(Nc4ccc(I)cc4F)n(C)c(=O)c(C)c32)c1 [Trametinib] (partner 0.02 µM)    0.323
Cc1csc(=NC2CCCCC2)n1/N=C/c1ccc(O)c(O)c1O [MIM1] + CC(=O)Nc1cccc(-n2c(=O)n(C3CC3)c(=O)c3c(Nc4ccc(I)cc4F)n(C)c(=O)c(C)c32)c1 [Trametinib] (partner 0.02 µM)    0.341
CN1CCN(CCOc2cc(OC3CCOCC3)c3c(Nc4c(Cl)ccc5c4OCO5)ncnc3c2)CC1 [Saracatinib] + CC(C)C[C@H](NC(=O)[C@H](Cc1ccccc1)NC(=O)c1cnccn1)B(O)O [Bortezomib] (partner 0.002 µM)    0.639
Cc1csc(=NC2CCCCC2)n1/N=C/c1ccc(O)c(O)c1O [MIM1] + COc1cc2c(Oc3ccc(NC(=O)C4(C(=O)Nc5ccc(F)cc5)CC4)cc3F)ccnc2cc1OCCCN1CCOCC1 [Foretinib] (partner 0.25 µM)    1.2
CN1CCN(CCOc2cc(OC3CCOCC3)c3c(Nc4c(Cl)ccc5c4OCO5)ncnc3c2)CC1 [Saracatinib] + CS(=O)(=O)CCNCc1ccc(-c2ccc3ncnc(Nc4ccc(OCc5cccc(F)c5)c(Cl)c4)c3c2)o1 [Lapatinib] (partner 2 µM)    0.555
Cc1csc(=NC2CCCCC2)n1/N=C/c1ccc(O)c(O)c1O [MIM1] + Nc1nc2[nH]cc(CCc3ccc(C(=O)N[C@@H](CCC(=O)O)C(=O)O)cc3)c2c(=O)[nH]1 [Pemetrexed] (partner 0.2 µM)    1.04
Cc1csc(=NC2CCCCC2)n1/N=C/c1ccc(O)c(O)c1O [MIM1] + CC(=O)c1c(C)c2cnc(Nc3ccc(N4CCNCC4)cn3)nc2n(C2CCCC2)c1=O [Palbociclib] (partner 0.5 µM)    0.481
CN1CCN(CCOc2cc(OC3CCOCC3)c3c(Nc4c(Cl)ccc5c4OCO5)ncnc3c2)CC1 [Saracatinib] + C[C@]1(O)C[C@@H](c2nc(-c3ccc4ccc(-c5ccccc5)nc4c3)c3c(N)nccn32)C1 [Linsitinib] (partner 1 µM)    1.03

Exercise: Give the measured relative viability of Cc1csc(=NC2CCCCC2)n1/N=C/c1ccc(O)c(O)c1O [MIM1] + COc1cccc2cc(-c3nc([C@H]4CC[C@H](C(=O)O)CC4)n4ncnc(N)c34)[nH]c12 [OSI-027] (partner 0.5 µM) .
Solution: 0.57

Exercise: Same question, CN1CCN(CCOc2cc(OC3CCOCC3)c3c(Nc4c(Cl)ccc5c4OCO5)ncnc3c2)CC1 [Saracatinib] + CC(=O)c1c(C)c2cnc(Nc3ccc(N4CCNCC4)cn3)nc2n(C2CCCC2)c1=O [Palbociclib] (partner 0.5 µM) this time
Solution: 0.152

---

System: HCC-44
measurementDescription: relative viability (nuclei count vs DMSO), 5 days (fraction); higher = more cells survive
protocolConditions: first compound 2.53 µM
Please note: relative viability exactly at 1 is 0.0. Only values below 1 get 1.0.

Check out these entries, answers already filled in.
Nc1cccc2c1CN(C1CCC(=O)NC1=O)C2=O (stereo not given) [Lenalidomide] + CS(=O)(=O)N1CCN(Cc2cc3nc(-c4cccc5[nH]ncc45)nc(N4CCOCC4)c3s2)CC1 [Pictilisib] (partner 1 µM)    1.0
Nc1cccc2c1CN(C1CCC(=O)NC1=O)C2=O (stereo not given) [Lenalidomide] + CC1(C)CCC(c2ccc(Cl)cc2)=C(CN2CCN(c3ccc(C(=O)NS(=O)(=O)c4ccc(N[C@H](CCN5CCOCC5)CSc5ccccc5)c(S(=O)(=O)C(F)(F)F)c4)cc3)CC2)C1 [Navitoclax] (partner 0.5 µM)    0.0

API: the following record is the query input.
Exercise: Hi there! Is relative viability for Nc1cccc2c1CN(C1CCC(=O)NC1=O)C2=O (stereo not given) [Lenalidomide] + COc1cccc2cc(-c3nc([C@H]4CC[C@H](C(=O)O)CC4)n4ncnc(N)c34)[nH]c12 [OSI-027] (partner 0.5 µM) below 1, do you know?
Solution: 1.0

---

Test system: NCI-H1355
measurementDescription: relative viability (nuclei count vs DMSO), 5 days (fraction); higher = more cells survive
protocolConditions: first compound 2.53 µM
With a cut-off of 0.8, any relative viability strictly below it is called yes; any relative viability meeting it or above is called no.

The examples below pair each entry with its known result.
Nc1cccc2c1CN(C1CCC(=O)NC1=O)C2=O (configuration not stated) [Lenalidomide] + O=C(CCCCCCC(=O)Nc1ccccc1)NO [Vorinostat] (partner 1 µM)    yes
Nc1cccc2c1CN(C1CCC(=O)NC1=O)C2=O (configuration not stated) [Lenalidomide] + CC(C)C[C@H](NC(=O)[C@H](Cc1ccccc1)NC(=O)c1cnccn1)B(O)O [Bortezomib] (partner 0.002 µM)    no
Nc1cccc2c1CN(C1CCC(=O)NC1=O)C2=O (configuration not stated) [Lenalidomide] + Cc1cc(Nc2cc(N3CCN(C)CC3)nc(Sc3ccc(NC(=O)C4CC4)cc3)n2)n[nH]1 [Tozasertib] (partner 0.1 µM)    yes

Exercise: relative viability strictly < 0.8 for this compound? Nc1cccc2c1CN(C1CCC(=O)NC1=O)C2=O (configuration not stated) [Lenalidomide] + C[C@]1(O)C[C@@H](c2nc(-c3ccc4ccc(-c5ccccc5)nc4c3)c3c(N)nccn32)C1 [Linsitinib] (partner 1 µM)
Solution: no

Exercise: One more compound: Nc1cccc2c1CN(C1CCC(=O)NC1=O)C2=O (configuration not stated) [Lenalidomide] + NC(=O)Nc1cc(-c2cccc(F)c2)sc1C(=O)N[C@H]1CCCNC1 [AZD7762] (partner 0.2 µM)
Solution: yes

Exercise: # iterate: Nc1cccc2c1CN(C1CCC(=O)NC1=O)C2=O (configuration not stated) [Lenalidomide] + N=C(N)NC(=N)NCCc1ccccc1 [Phenformin] (partner 250 µM)
Solution: yes

Exercise: // same read-out, input: Nc1cccc2c1CN(C1CCC(=O)NC1=O)C2=O (configuration not stated) [Lenalidomide] + COc1cc2c(Oc3ccc(NC(=O)C4(C(=O)Nc5ccc(F)cc5)CC4)cc3F)ccnc2cc1OCCCN1CCOCC1 [Foretinib] (partner 0.25 µM)
Solution: no
